# experimentNotes: Cytotoxicity against HEL cells infected with Cytomegalovirus assessed as alteration in cell morphology by microscopic method
# Assay type: cell-based
# setupConditions: human, HEL cells infected with Cytomegalovirus
# MCC values compiled below
# value in µM; strip the unit string

Query: Report MCC for CCOP(=O)(OCC)[C@@H]1C[C@@H](Cn2c(=O)n(Cc3ccc(F)cc3)c(=O)c3ccccc32)ON1C (relative stereo) please.
Response: 100

Query: Also, CCOP(=O)(OCC)[C@@H]1C[C@@H](Cn2c(=O)n(Cc3ccccc3F)c(=O)c3ccccc32)ON1C (relative stereo) please.
Response: 20

###

# System: HEL
# experimentNotes: Cytotoxicity against HEL cells infected with Varicella-Zoster virus assessed as alteration in cell morphology by microscopic method
# Assay type: cell-based
# setupConditions: human, hel
measurementType: MCC (µM)
# value in µM; strip the unit string

CCOP(=O)(OCC)C1CC(Cn2c(=O)n(Cc3ccc(F)cc3)c(=O)c3ccccc32)ON1Cc1ccccc1 (mixture of isomers; cis) | 20

The record that follows has no MCC shown yet.
Query: Report MCC for CCOP(=O)(OCC)C1CC(Cn2c(=O)n(Cc3ccc(F)cc3)c(=O)c3ccccc32)ON1Cc1ccccc1 (mixture of isomers; trans) please.
Response: 100

###

# Tested on: Cytomegalovirus
# experimentNotes: Antiviral activity against Cytomegalovirus Davis infected in HEL cells assessed as reduction in virus plaque formation
# Type: functional, cell-based
# setupConditions: Human betaherpesvirus 5, Davis, HEL
pEC50: −log10 of the molar value.
measurementType: pEC50

See these solved cases before continuing.
CCOP(=O)(OCC)[C@H]1C[C@@H](Cn2c(=O)n(Cc3ccccc3F)c(=O)c3ccccc32)ON1C (relative stereo) | 4.00
CCOP(=O)(OCC)[C@H]1C[C@@H](Cn2c(=O)n(C(=O)c3ccc(F)cc3)c(=O)c3ccccc32)ON1C (relative stereo) | < 4.70
CCOP(=O)(OCC)[C@@H]1C[C@@H](Cn2c(=O)n(Cc3ccc(F)cc3)c(=O)c3ccccc32)ON1C (relative stereo) | 4.00
CCOP(=O)(OCC)[C@@H]1C[C@@H](Cn2c(=O)n(Cc3ccccc3F)c(=O)c3ccccc32)ON1C (relative stereo) | 4.00
CCOP(=O)(OCC)C1CC(Cn2c(=O)n(Cc3cccc(F)c3)c(=O)c3ccccc32)ON1C (mixture of isomers) | 4.35
CCOP(=O)(OCC)[C@@H]1C[C@@H](Cn2c(=O)n(C(=O)c3ccccc3F)c(=O)c3ccccc32)ON1C (relative stereo) | 4.17

Query: Request: pEC50, test system Cytomegalovirus, entry Nc1nc(O)c2ncn(COC(CO)CO)c2n1 [GANCICLOVIR]
Response: 5.19

Query: Also, Nc1ccn(C[C@@H](CO)OCP(=O)(O)O)c(=O)n1 [CIDOFOVIR] please.
Response: 6.09

Query: Also, CCOP(=O)(OCC)[C@@H]1C[C@@H](Cn2c(=O)n(Cc3cccc(F)c3)c(=O)c3ccccc32)ON1C (relative stereo) please.
Response: 4.20

Query: Also, CCOP(=O)(OCC)C1CC(Cn2c(=O)n(C(=O)c3cccc(F)c3)c(=O)c3ccccc32)ON1Cc1ccccc1 (mixture of isomers) please.
Response: < 4.70

Query: Also, CCOP(=O)(OCC)[C@@H]1C[C@@H](Cn2c(=O)n(C(=O)c3ccc(F)cc3)c(=O)c3ccccc32)ON1Cc1ccccc1 (relative stereo) please.
Response: < 4.70
